Entries and their pEC50
target-or-test-system: Kappa-type opioid receptor (Homo sapiens)
Sequence (P41145 whole entry): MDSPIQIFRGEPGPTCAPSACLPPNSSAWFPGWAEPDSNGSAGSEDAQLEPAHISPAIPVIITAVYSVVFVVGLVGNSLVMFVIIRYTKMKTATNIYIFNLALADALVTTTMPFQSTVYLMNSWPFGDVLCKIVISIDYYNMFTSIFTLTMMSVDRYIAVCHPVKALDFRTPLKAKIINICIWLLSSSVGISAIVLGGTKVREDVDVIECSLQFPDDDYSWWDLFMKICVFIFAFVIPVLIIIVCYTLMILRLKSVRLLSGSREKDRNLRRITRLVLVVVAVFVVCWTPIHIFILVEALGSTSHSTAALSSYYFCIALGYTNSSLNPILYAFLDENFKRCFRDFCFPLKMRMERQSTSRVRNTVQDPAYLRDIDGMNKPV
procedure-details: Agonist activity at human kappa opioid receptor expressed in CHO cells assessed as stimulation of [35S]GTPgammaS binding
Scale: negative log10 of molar concentration, which is what pEC50 denotes.

Consider the worked cases shown below.
Exam item: Quick one: give measured pEC50 for C[C@H]1C2Cc3ccc4[nH]nnc4c3[C@@]1(C)CCN2CC1CC1
Marked response: 8.07

Exam item: Quick one: give measured pEC50 for Cc1nc2cc3c(cc2[nH]1)[C@@]1(C)CCN(CC2CC2)C(C3)[C@@H]1C
Marked response: 8.24

Exam item: Quick one: give measured pEC50 for C[C@H]1C2Cc3cc4nn[nH]c4cc3[C@@]1(C)CCN2CC1CC1
Marked response: 7.11

Exam item: Quick one: give measured pEC50 for C[C@H]1C2Cc3cc4[nH]cnc4cc3[C@@]1(C)CCN2CC1CC1
Marked response: 8.33

Continue with the next compound.
Exam item: Quick one: give measured pEC50 for C[C@H]1[C@H]2Cc3ccc(O)cc3[C@]1(C)CCN2CC1CC1 [CYCLAZOCINE]
Marked response: 8.89
